Entry source: patent US9523100B2

Could you please report measured mortality at 200 ppm for the items listed next?
# Test system: Green Peach Aphid (GPA) (Myzus persicae) (MYZUPE)
# procedure-text: Bioassay for Green Peach Aphid (GPA), foliar spray on cabbage seedlings
# Format: in vivo
# conditions: 72 h, 200 ppm foliar spray on cabbage seedlings, graded after three days, Abbott corrected % control, read-out: GPA 200 ppm, % Control (or Mortality) rating

compound	test-target	readout-value
O=C(CCC(=O)N(CC1CC1)c1cn(-c2cccnc2)nc1Cl)N1CCCCC1 [Compound F82]	Green Peach Aphid (GPA) (Myzus persicae) (MYZUPE)	0 to 80%

Would you mind listing mortality at 200 ppm for each of the following compounds?
1. CCN(C(=O)CCNC(=O)C(C)CC(F)(F)F)c1cn(-c2cccnc2)nc1Cl (centres unmarked) [Compound F44]
2. CCN(C(=O)CC1CCN(CC(F)(F)F)C1=O)c1cn(-c2cccnc2)nc1Cl (centres unmarked) [FA65]
3. CCN(C(=O)CN1CCCC1=O)c1cn(-c2cccnc2)nc1Cl [Compound F124]

["80 to 100%", "80 to 100%", "80 to 100%"]

// each listed compound needs a value for mortality at 200 ppm
1. CCN(C(=O)C1CCN(C(=O)CC(F)(F)F)CC1)c1cn(-c2cccnc2)nc1Cl [Compound P16]
2. CCN(C(=O)CCCN1CCCC1=O)c1cn(-c2cccnc2)nc1Cl [FA33]
3. CCN(C(=O)CCC(=O)N(C)CC1CC1)c1cn(-c2cccnc2)nc1Cl [Compound F30]
4. CC(=O)N[C@@H]1C=C[C@H](C(=O)N(C)c2cn(-c3cccnc3)nc2Cl)C1 [Compound F86]
5. CCN(C(=O)C1CCN(C(=O)CCC(F)(F)F)C1)c1cn(-c2cccnc2)nc1Cl (centres unmarked) [FA10]

["80 to 100%", "80 to 100%", "80 to 100%", "80 to 100%", "80 to 100%"]

# map each compound to its mortality at 200 ppm
1. CCN(C(=O)CCN(CC(F)F)C(=O)CCC(F)(F)F)c1cn(-c2cccnc2)nc1Cl [Compound F89]
2. CCN(C(=O)CCN(C)C(C)=O)c1cn(-c2cccnc2)nc1Cl [Compound F64]
3. CCN(C(=O)CCN)c1cn(-c2cccnc2)nc1Cl [Compound C2]
4. CCN(C(=O)CN(C)C(=O)CC(F)(F)F)c1cn(-c2cccnc2)nc1Cl [Compound F120]

80 to 100%
80 to 100%
0 to 80%
80 to 100%

Batch of 6 compounds: report mortality at 200 ppm for each.
1. CN(C(=O)CCC(=O)N1CCCCC1)c1cn(-c2cccnc2)nc1Cl [Compound F33]
2. CCN(C(=O)CC/C(=N/OCC1CC(F)(F)C1)c1cccs1)c1cn(-c2cccnc2)nc1Cl [FA31]
3. CCN(C(=O)COC(C)=O)c1cn(-c2cccnc2)nc1Cl [FA72]
4. CCN(C(=O)CCNC(=O)C1(C)CC1(F)F)c1cn(-c2cccnc2)nc1Cl (centres unmarked) [Compound F113]
5. CCN(C(=O)CC/C(C)=N/OCCCC(F)(F)F)c1cn(-c2cccnc2)nc1Cl [FA19]
6. CCN(C(=O)CCCC1CN(Cc2ccc(C(F)(F)F)cc2)C1=O)c1cn(-c2cccnc2)nc1Cl (centres unmarked) [Compound F127]

0 to 80%
< 0%
0 to 80%
80 to 100%
0 to 80%
0 to 80%

Working through the 6 compounds below one at a time, give mortality at 200 ppm for each.
1. CN(C(=O)CCC(=O)N1CCCCCC1)c1cn(-c2cccnc2)nc1Cl [Compound F27]
2. CC(CCC(=O)N(C)c1cn(-c2cccnc2)nc1Cl)=NOC(C)C (mixture of isomers) [Compound F130]
3. CCN(C(=O)CC/C(C)=N/Oc1cc(C(F)(F)F)ccn1)c1cn(-c2cccnc2)nc1Cl [Compound F36]
4. CCN(C(=O)C(C)C/C(C)=N\OCCC1CC1(F)F)c1cn(-c2cccnc2)nc1Cl (centres unmarked) [FA57]
5. CCN(C(=O)C1CCN(C(=O)CCC#N)C1)c1cn(-c2cccnc2)nc1Cl (centres unmarked) [FA11]
6. CCN(C(=O)CCNC(=O)Cc1ccc(F)cc1)c1cn(-c2cccnc2)nc1Cl [Compound F46]

1: 0 to 80%; 2: 80 to 100%; 3: 80 to 100%; 4: 80 to 100%; 5: 80 to 100%; 6: 0 to 80%

Entry CCN(C(=O)CCC(=O)NC1CC1C(F)(F)F)c1cn(-c2cccnc2)nc1Cl (centres unmarked) [Compound F54] has what mortality at 200 ppm?
80 to 100%
